- target.or.test.system: human AspH (His6-AspH315–758) (Homo sapiens, UniProt Q12797)
- Construct: N-Terminally His6-tagged human AspH315–758 (His6-AspH315–758) was produced in Escherichia coli BL21 (DE3) cells; made in house; host or cells: Escherichia coli BL21 (DE3), pET-28a(+) vector
- Sequence (Q12797 315-758): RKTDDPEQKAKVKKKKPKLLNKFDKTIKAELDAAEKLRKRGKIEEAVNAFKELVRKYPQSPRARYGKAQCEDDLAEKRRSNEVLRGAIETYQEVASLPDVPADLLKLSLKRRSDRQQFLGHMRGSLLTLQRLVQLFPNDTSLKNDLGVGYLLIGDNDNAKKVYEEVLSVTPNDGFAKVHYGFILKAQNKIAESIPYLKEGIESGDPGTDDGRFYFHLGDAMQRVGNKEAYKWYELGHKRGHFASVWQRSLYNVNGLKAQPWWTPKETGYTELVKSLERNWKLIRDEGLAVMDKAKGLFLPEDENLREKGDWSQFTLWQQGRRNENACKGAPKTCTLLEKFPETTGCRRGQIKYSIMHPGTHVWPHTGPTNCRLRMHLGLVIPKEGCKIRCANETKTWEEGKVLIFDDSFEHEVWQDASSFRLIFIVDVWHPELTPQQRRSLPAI
- assay.explanation: SPE-MS AspH inhibition assay (hFX-CP101-119 substrate hydroxylation)
- Type: biochemical
- condition.set: AspH-inhibitor screening, Plate 1-duplicate
Counter-ions that a name gives are not always drawn.
readout.type: Plate 1-duplicate (% inhibition) (%)
Answers are plain numbers, in %.

As a guide, the following entries are already answered.
molecule	readout.type	recorded.result
CCN(CC)CCNC(=O)c1c(C)[nH]c(/C=C2\C(=O)Nc3ccc(F)cc32)c1C	Plate 1-duplicate (% inhibition)	-34.40
C[C@@H](Oc1cc(-c2cnn(C3CCNCC3)c2)cnc1N)c1c(Cl)ccc(F)c1Cl [Crizotinib]	Plate 1-duplicate (% inhibition)	-0.27
CCc1c2c(nc3ccc(OC(=O)N4CCC(N5CCCCC5)CC4)cc13)-c1cc3c(c(=O)n1C2)COC(=O)[C@]3(O)CC.Cl [Irinotecan hydrochloride]	Plate 1-duplicate (% inhibition)	0.58

Quick batch: Plate 1-duplicate (% inhibition) for everything below.
1. CCC1(c2ccc(N)cc2)CCC(=O)NC1=O (stereo not shown) [Aminoglutethimide]
2. COc1ncc(-c2ccc3nccc(-c4ccnnc4)c3c2)cc1NS(=O)(=O)c1ccc(F)cc1F
3. CN(Cc1cnc2nc(N)nc(N)c2n1)c1ccc(C(=O)N[C@@H](CCC(=O)O)C(=O)O)cc1 [Abitrexate/Methotrexate]
4. CCn1c(-c2nonc2N)nc2cnc(Oc3cccc(NC(=O)c4ccc(OCCN5CCOCC5)cc4)c3)cc21
5. COc1cc2c(cc1O)CC[C@@H]1[C@@H]2CC[C@]2(C)[C@@H](O)CC[C@@H]12
6. C[C@]12C=CC(=O)C=C1CC[C@@H]1[C@@H]2[C@@H](O)C[C@@]2(C)[C@H]1CC[C@]2(O)C(=O)CO
7. CC(=O)OC[C@H]1O[C@@H]([S-])[C@H](OC(C)=O)[C@@H](OC(C)=O)[C@@H]1OC(C)=O.CCP(CC)CC.[Au+]
8. COc1cccc2c1C(=O)c1c(O)c3c(c(O)c1C2=O)C[C@@](O)(C(=O)CO)C[C@@H]3O[C@H]1C[C@H](N)[C@@H](O)[C@H](C)O1 [Epirubicin hydrochloride]

9.40
17.15
10.50
-34.23
3.64
12.03
55.51
-28.05
